- protocol-text: qHTS Assay for Lipid Storage Modulators (AID 1519); further: on the % scale 0 is the no-effect control and ±100 the full control effect
- condition-info: Drosophila S3 cells, BODIPY lipid droplet/cell ratio, laser cytometry; at 25.7 µM (top of the series); cells loaded with oleic acid
- Method: NIH Molecular Libraries Probe Production Centers Network [MLPCN] NIH Chemical Genomics Center [NCGC] Assay Submitter (PI): Beller, Mathias; Max-Planck-Institut fur Biophysikalische Chemie […] We dispensed 4 uL of cells at 1.25 x 10^6 cells/mL into LoBase Aurora COC 1,536-well plates (black walled, clear bottom) with a bottle-valve solenoid-based dispenser (Aurora) to obtain 5,000 cells/well. […] The ratio of the total intensity in PMT channel 1 over total intensity of channel 3 was also calculated. […]
Results filed as inconclusive are left out.
measure-name: activity change, negative = inhibition (%)
Write the number in % without appending the unit.

# count of solved cases: 2
In [3]: df
Out[3]:
                                   molecule  obs_value
0           c1ccc(CN(CC2=NCCN2)c2ccccc2)cc1      -2.49
1  CC1=C(CC(=O)O)c2cc(F)ccc2/C1=C\c1ccc(S(C)=O)cc1 (configuration not stated)     -0.955

Q. Which activity change, negative = inhibition is reported for this molecule? "CN(C)CCC=C1c2ccccc2CCc2ccccc21"
A. -5.26

Q. Which activity change, negative = inhibition is reported for this molecule? "C#CCN(C)Cc1ccccc1"
A. -2.03

Q. Which activity change, negative = inhibition is reported for this molecule? "Cn1cc[nH]c1=S"
A. -0.635

Q. Which activity change, negative = inhibition is reported for this molecule? "CCOc1ccc2ccccc2c1C(=O)N[C@@H]1C(=O)N2[C@@H]1SC(C)(C)[C@@H]2C(=O)O"
A. -0.855

Q. Which activity change, negative = inhibition is reported for this molecule? "CCN(CC)CCOC(=O)C1(C2CCCCC2)CCCCC1"
A. -3.18

Q. Which activity change, negative = inhibition is reported for this molecule? "COc1ccc2c(c1)C(=O)N(CCc1ccc(S(=O)(=O)NC(=O)NC3CCCCC3)cc1)C(=O)C2(C)C"
A. -1.13

Q. Which activity change, negative = inhibition is reported for this molecule? "CN(C)CCCN1c2ccccc2CCc2ccccc21"
A. -3.67

Q. Which activity change, negative = inhibition is reported for this molecule? "CCN(CC)CCNC(=O)c1cc(Cl)c(N)cc1OC"
A. -0.223

Q. Which activity change, negative = inhibition is reported for this molecule? "OCCN1CCN(CCCN2c3ccccc3Sc3ccc(Cl)cc32)CC1"
A. -1.31

Q. Which activity change, negative = inhibition is reported for this molecule? "CNCCCC1c2ccccc2C=Cc2ccccc21"
A. -5.19

---

- protocol-text: qHTS of pediatric cancer cell lines to identify multiple opportunities for drug repurposing: Primary screen for Saos-2 cells (AID 1347097); further: nearly all actives have a fitted effect of over 40% in size; further: potency means the concentration at half of the fitted maximal effect
- condition-info: Saos-2 viability, CellTiter-Glo ATP luminescence, 48 h; series mostly up to 46 µM
Results filed as inconclusive are left out. The source made the active and inactive calls. The call rests on the fitted dose curve; in most records, active means well fitted cell-killing curve with a large enough effect; inconclusive means small, poorly fitted or top-dose-only effect; inactive means no such curve, though single readings can be large or run the other way.
measure-name: Potency

# count of solved cases: 5
>>> df
                                   compound         obs_value
0                       CCC(=O)Nc1ccc(O)cc1          inactive
1                            O=C(O)c1ccccn1          inactive
2                         C#CCN(C)Cc1ccccc1          inactive
3  CCOC(CN1CCN(CC(C)C(=O)c2ccccc2)CC1)c1ccccc1 (configuration not stated)          inactive
4  CCN(CC)CCNC(=O)c1c(C)[nH]c(/C=C2\C(=O)Nc3ccc(F)cc32)c1C  21.1 µM (active)

Q. Which Potency is reported for this compound? "CCCCN(CCCC)CCCOC(=O)c1ccc(N)cc1"
A. inactive

Q. Which Potency is reported for this compound? Cc1cc(C(C#N)c2ccc(Cl)cc2)c(Cl)cc1NC(=O)c1cc(I)cc(I)c1O (configuration not stated)
A. 26.6 µM (active)

Q. Which Potency is reported for this compound? "Cc1ncc(COP(=O)(O)O)c(C=O)c1O"
A. inactive

Q. Which Potency is reported for this compound? "COC(=O)[C@H]1[C@H]2C[C@@H]3c4[nH]c5cc(OC)ccc5c4CCN3C[C@H]2C[C@@H](OC(=O)COc2ccc(OC)cc2)[C@@H]1OC"
A. inactive

Q. Which Potency is reported for this compound? "Cc1cccc(C)c1NC(=O)CN(CC(=O)O)CC(=O)O"
A. inactive

Q. Which Potency is reported for this compound? CNCC(O)c1ccc(O)c(O)c1 (configuration not stated)
A. 26.6 µM (active)

Q. Which Potency is reported for this compound? "Nc1ccc(S(=O)(=O)Nc2nccs2)cc1"
A. inactive

---

- protocol-text: qHTS of pediatric cancer cell lines to identify multiple opportunities for drug repurposing: Confirmatory screen for BT-37 cells (AID 1347117);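 further: viability measured after 48 h of compound exposure; nearly all actives have a fitted effect of over 55% in size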
- condition-info: BT-37 pediatric cancer cells, viability; series mostly up to 45.9 µM
Inconclusive results are not listed. The source made the active and inactive calls. The call rests on the fitted dose curve; in most records, active means well fitted cell-killing curve with a large enough effect; inconclusive means small, poorly fitted or top-dose-only effect; inactive means no such curve, though single readings can be large or run the other way.
Classes to choose from: true (1) for active, false (0) for inactive

Completed entries (count: 3):
>>> print(df.to_string())
                                  structure  category_label
0                   CCCCC/C(C=O)=C\c1ccccc1        true (1)
1  O=C1N=C(O)CN1/N=C/c1ccc(-c2ccc([N+](=O)[O-])cc2)o1       false (0)
2        O=C(O)CN1C(=O)c2cccc3cccc(c23)C1=O        true (1)

Continue with the next molecule.
Q. Call for entry "CCN(CC)CCNC(=O)c1cc(Cl)c(N)cc1OC" :
A. false (0)

---

- Test system: UISO
- protocol-text: qHTS assay to identify novel small-molecules to repurpose for Merkel cell carcinoma treatment (AID 1296009); further: nearly all actives have a fitted effect of over 60% in size
- condition-info: MCC and control cell lines, CellTiter-Glo viability, 72 h; series mostly up to 46 µM
Inconclusive results are not listed. Calls of active or inactive are those of the source. Calls follow the shape of the dose curve; as a rule, active = well fitted inhibition curve with a large enough effect; inconclusive = small, poorly fitted or top-dose-only effect; inactive = flat fitted curve, though single readings scatter.
Classes to choose from: active, inactive

Completed entries (count: 5):
In [3]: df
Out[3]:
                                   molecule  category_label
0  N[C@H]1C(O)O[C@H](CO)[C@@H](O)[C@@H]1O (stereo not given in full)        inactive
1                       [O-][n+]1cccc(CO)c1        inactive
2                                NCCNCCNCCN        inactive
3     CCCc1c(OCCCCc2nn[nH]n2)ccc(C(C)=O)c1O        inactive
4  Cc1cc(O)cc2c1O[C@](C)(CCC[C@H](C)CCC[C@H](C)CCCC(C)C)CC2        inactive

Q. Call for entry "CC(=O)CCC(=O)O" :
A. inactive

Q. Call for entry CN(C)CCCO[C@@H]1[C@H]2OC(C)(C)O[C@H]2O[C@@H]1C(O)CO (stereo not given in full) :
A. inactive

Q. Call for entry "NC(=O)NC(=O)Cc1ccccc1" :
A. inactive

Q. Call for entry "C[C@@H](O)[C@H](N)C(=O)O" :
A. inactive

Q. Call for entry OCC(O)CN1CCN(c2ccccc2)CC1 (stereo not given) :
A. inactive

Q. Call for entry "OCCN1CCN(CCCN2c3ccccc3Sc3ccc(Cl)cc32)CC1" :
A. active

Q. Call for entry "CC1(C)Oc2ccc(C#N)cc2[C@@H](N2CCCC2=O)[C@@H]1O" :
A. inactive

Q. Call for entry "Cn1cc[nH]c1=S" :
A. inactive

Q. Call for entry "O=S(=O)(O)NC1CCCCC1" :
A. inactive

Q. Call for entry "O=Cc1ccccc1C=O" :
A. inactive

Q. Call for entry CN1CCCCC1CCN1c2ccccc2Sc2ccc(S(C)=O)cc21 (stereo not given) :
A. inactive

Q. Call for entry CSc1ccc2c(c1)N(CCC1CCCCN1C)c1ccccc1S2 (stereo not given) :
A. active

Q. Call for entry NC1[C@H]2CN(c3nc4c(cc3F)c(=O)c(C(=O)O)cn4-c3ccc(F)cc3F)C[C@@H]12 (stereo not given in full) :
A. active

Q. Call for entry "O=C(O)c1ccccc1-c1ccc(C(F)(F)F)cc1" :
A. inactive

Q. Call for entry "O=C1NS(=O)(=O)c2ccccc21" :
A. inactive

Q. Call for entry "CCCCOc1cc(C(=O)OCCN(CC)CC)ccc1N" :
A. inactive

Q. Call for entry "c1ccc(CN(CC2=NCCN2)c2ccccc2)cc1" :
A. inactive

Q. Call for entry "Cc1cc2nc3c(=O)[nH]c(=O)nc-3n(C[C@H](O)[C@H](O)[C@H](O)CO)c2cc1C" :
A. inactive

Q. Call for entry "CS(=O)(=O)c1ccc([C@@H](O)[C@@H](CF)NC(=O)C(Cl)Cl)cc1" :
A. inactive

Q. Call for entry "C[C@@H]1C[C@H]2[C@@H]3C[C@H](F)C4=CC(=O)C=C[C@]4(C)[C@@]3(F)[C@@H](O)C[C@]2(C)[C@@]1(O)C(=O)CO" :
A. inactive
